Reported TGI values for the following compounds.
- Tested on: PANC-1
- Assay remarks: Cytotoxicity against human PANC1 cells after 48 hrs by SRB assay
- Assay type: functional
- Test conditions: PANC-1, 48 h
Use nM as the unit, but write only the number.

Example entries and their recorded answers appear below.
[
  {
    "Structure as smiles": "C/C=C1\\NC(=O)[C@H](Cc2ccccc2)NC(=O)[C@@H](C(C)C)NC(=O)[C@@H]([C@H](C)CC)NC(=O)[C@H](NC(=O)[C@H](NC(=O)[C@H](CCCN)NC(=O)[C@H]2CCCN2C(=O)[C@H](NC(=O)[C@@H](NC(=O)[C@@H](NC(=O)[C@@H](CCCN)NC(=O)CCCC(C)C)[C@@H](C)O)C(C)C)C(C)C)[C@H](C)CC)[C@H](C)OC(=O)[C@H](C(C)C)NC1=O",
    "Unit abbrev": "nM",
    "TGI": 1240
  },
  {
    "Structure as smiles": "C/C=C1\\NC(=O)[C@H](Cc2ccccc2)NC(=O)[C@@H](C(C)C)NC(=O)[C@@H]([C@H](C)CC)NC(=O)[C@H](NC(=O)[C@H](NC(=O)[C@H](CCCN)NC(=O)[C@H]2CCCN2C(=O)[C@H](NC(=O)[C@@H](NC(=O)[C@@H](NC(=O)[C@H](NC(=O)Cc2ccc(C(F)(F)F)cc2)C(C)C)[C@@H](C)O)C(C)C)C(C)C)[C@H](C)CC)[C@H](C)OC(=O)[C@H](C(C)C)NC1=O",
    "Unit abbrev": "nM",
    "TGI": 2250
  },
  {
    "Structure as smiles": "C/C=C1\\NC(=O)[C@H](Cc2ccccc2)NC(=O)[C@@H](C(C)C)NC(=O)[C@@H]([C@H](C)CC)NC(=O)[C@H](NC(=O)[C@H](NC(=O)[C@H](CCCN)NC(=O)[C@H]2CCCN2C(=O)[C@H](NC(=O)[C@@H](NC(=O)[C@@H](NC(=O)[C@H](NC(=O)CCCCCC)C(C)C)[C@@H](C)O)C(C)C)C(C)C)[C@H](C)CC)[C@H](C)OC(=O)[C@H](C(C)C)NC1=O",
    "Unit abbrev": "nM",
    "TGI": 3780
  },
  {
    "Structure as smiles": "CC[C@@H]1NC(=O)[C@H](Cc2ccccc2)NC(=O)[C@@H](C(C)C)NC(=O)[C@@H]([C@H](C)CC)NC(=O)[C@H](NC(=O)[C@H](NC(=O)[C@H](CCCN)NC(=O)[C@H]2CCCN2C(=O)[C@H](NC(=O)[C@@H](NC(=O)[C@@H](NC(=O)[C@H](NC(=O)CCCC(C)C)C(C)C)[C@@H](C)O)C(C)C)C(C)C)[C@H](C)CC)[C@H](C)OC(=O)[C@H](C(C)C)NC1=O",
    "Unit abbrev": "nM",
    "TGI": 4980
  },
  {
    "Structure as smiles": "C/C=C1\\NC(=O)[C@H](Cc2ccccc2)NC(=O)[C@@H](C(C)C)NC(=O)[C@@H]([C@H](C)CC)NC(=O)[C@H](NC(=O)[C@H](NC(=O)[C@H](CCCN)NC(=O)[C@H]2CCCN2C(=O)[C@H](NC(=O)CCCC(C)C)C(C)C)[C@H](C)CC)[C@H](C)OC(=O)[C@H](C(C)C)NC1=O",
    "Unit abbrev": "nM",
    "TGI": 2660
  },
  {
    "Structure as smiles": "C/C=C1\\NC(=O)[C@H](Cc2ccccc2)NC(=O)[C@@H](C(C)C)NC(=O)[C@@H]([C@H](C)CC)NC(=O)[C@H](NC(=O)[C@H](NC(=O)[C@H](CCCN)NC(=O)[C@H]2CCCN2C(=O)[C@H](NC(=O)[C@H](CC(C)C)NC(=O)[C@@H](NC(=O)[C@H](NC(=O)CCCC(C)C)C(C)C)[C@@H](C)O)C(C)C)[C@H](C)CC)[C@H](C)OC(=O)[C@H](C(C)C)NC1=O",
    "Unit abbrev": "nM",
    "TGI": 4870
  },
  {
    "Structure as smiles": "C/C=C1\\NC(=O)[C@H](Cc2ccc(Cl)cc2)NC(=O)[C@@H](C(C)C)NC(=O)[C@@H]([C@H](C)CC)NC(=O)[C@H](NC(=O)[C@H](NC(=O)[C@H](CCCN)NC(=O)[C@H]2CCCN2C(=O)[C@H](NC(=O)[C@@H](NC(=O)[C@@H](NC(=O)[C@H](NC(=O)CCCC(C)C)C(C)C)[C@@H](C)O)C(C)C)C(C)C)[C@H](C)CC)[C@H](C)OC(=O)[C@H](C(C)C)NC1=O",
    "Unit abbrev": "nM",
    "TGI": 1700
  },
  {
    "Structure as smiles": "C/C=C1\\NC(=O)[C@H](Cc2ccccc2)NC(=O)[C@@H](C(C)C)NC(=O)[C@@H]([C@H](C)CC)NC(=O)[C@H](NC(=O)[C@H](NC(=O)[C@H](CCCN)NC(=O)[C@H]2CCCN2C(=O)[C@H](NC(=O)[C@@H](NC(=O)[C@@H](NC(=O)[C@H]2CCCN2C(=O)CCCC(C)C)[C@@H](C)O)C(C)C)C(C)C)[C@H](C)CC)[C@H](C)OC(=O)[C@H](C(C)C)NC1=O",
    "Unit abbrev": "nM",
    "TGI": 3800
  }
]

Lookup: Form field - read-out: TGI; system: PANC-1; submitted item: `C/C=C1\NC(=O)[C@H](Cc2ccccc2)NC(=O)[C@@H](C(C)C)NC(=O)[C@@H]([C@H](C)CC)NC(=O)[C@H](NC(=O)[C@H](NC(=O)[C@H](CCCN)NC(=O)[C@H]2CCCN2C(=O)[C@H](NC(=O)[C@@H](NC(=O)CNC(=O)[C@H](NC(=O)CCCC(C)C)C(C)C)C(C)C)C(C)C)[C@H](C)CC)[C@H](C)OC(=O)[C@H](C(C)C)NC1=O`
Found: 1070

Lookup: // same read-out, input: `C/C=C1\NC(=O)[C@H](Cc2ccccc2)NC(=O)[C@@H](C(C)C)NC(=O)[C@@H]([C@H](C)CC)NC(=O)[C@H](NC(=O)[C@H](NC(=O)[C@H](CCCN)NC(=O)[C@H]2CCCN2C(=O)[C@H](NC(=O)[C@@H](NC(=O)[C@@H](NC(=O)[C@H](NC(=O)c2ccc(C(F)(F)F)cc2)C(C)C)[C@@H](C)O)C(C)C)C(C)C)[C@H](C)CC)[C@H](C)OC(=O)[C@H](C(C)C)NC1=O`
Found: 2260

Data credit: ChEMBL document CHEMBL1156597
